Measured melting point, listed per entry.
Endpoint Name: melting point

| Compound | Test Value |
| --- | --- |
| NCc1ccc(-c2ccc3c(c2)CCO3)cc1 | 77 to 79 °C |
| COCCCS(=O)(=O)NCC(=O)O | 59 to 61 °C |
| C=CCn1c(S)nc2sc3c(c2c1=O)CCC(C)C3 (stereo not drawn) | 228 to 230 °C |
| CC(C)c1cccc(OCC(=O)O)c1 | 65 to 67 °C |
| CS(=O)(=O)Nc1cc(C(=O)O)ccc1Cl | 275 to 277 °C |
| O=C1NC(=O)C(Cc2ccccc2)(Cc2ccccc2)N1 | 318 to 320 °C |
| CC(C)(C)c1nc2cc(N)ccc2o1 | 111 to 113 °C |
| CC1CCC(NC(=O)C(C)Cl)CC1 (stereo not drawn) | 135 to 137 °C |
| C(=C\c1ccncc1)/c1ccccc1 | 128 to 130 °C |
| Nc1ccccc1C(=O)Nc1ccc(F)cc1 | 109 to 112 °C |
| O=S(=O)(Cl)c1ccc(OCC2CCCCO2)cc1 (stereo not drawn) | 64 to 66 °C |
| CN(C)C(=O)CCn1cc(Br)cn1 | 64 to 66 °C |
| N#CCCNS(=O)(=O)c1ccc(C(=O)O)cc1 | 240 to 242 °C |

* * *

| Compound | melting point |
| --- | --- |
| O=[N+]([O-])c1cc(S(=O)(=O)N2CCOCC2)ccc1Cl | 153 to 155 °C |
| Cc1noc(N)c1C(=O)O | 150 to 154 °C |
| CC(=O)c1cnn(C)c1C | 47 to 49 °C |
| CCC(Nc1ccccc1)C(N)=O (configuration not stated) | 122 to 124 °C |
| O=C(O)c1nnn(-c2cccc(C(F)(F)F)c2)c1C1CC1 | 169 to 171 °C |
| COc1ccc(C2C(CO)CCC(=O)N2C)cc1 (configuration not stated) | 119 to 121 °C |
| N#CCC(=O)c1cccc(Br)c1 | 94 to 96 °C |
| O=S1(=O)C=C(Nc2ccccc2)CC1 | 153 to 155 °C |
| CCC(C)C(NC(N)=O)C(=O)O (configuration not stated) | 205 to 207 °C |
| O=[N+]([O-])c1ccc(F)cc1S(=O)(=O)Cl | 57 to 59 °C |
| NCc1cc2c([nH]c1=O)CCC2 | 129 to 131 °C |
| Nc1ncc(Cc2cccc(C(F)(F)F)c2)s1 | 73 to 77 °C |
| CC(C)(C)c1cnc(S)o1 | 131 to 133 °C |
| Cc1nc2ccccc2n1CCO | 147 to 149 °C |
| Cc1ccc2c(c1)c(=O)n(C)c1nnc(CCl)n21 | 203 to 205 °C |
| O=C(O)c1sccc1S(=O)(=O)N1CCCC1 | 128 to 130 °C |
| OCCOC1CCNCC1 | 61 to 63 °C |
| N#CCc1ccc(C(=O)O)cc1 | 189 to 191 °C |
| ClCc1nnc(-c2ccc(Br)s2)o1 | 109 to 111 °C |
| O=C1COc2cccc(O)c2N1 | 247 to 249 °C |
| O=C(O)c1ccc2c(c1)S(=O)(=O)N(C1CC1)C2=O | 283 to 285 °C |
| NC1CCN(c2ccccc2)C1=O (configuration not stated) | 66 to 68 °C |
| COc1ccc2cc(C(=O)O)c(C)nc2c1 | 209 to 211 °C |
| O=c1[nH]c(-c2cccnc2)cs1 | 225 to 227 °C |
| CCN(CC)S(=O)(=O)c1ccc(OC(C)C)c(N)c1 | 89 to 91 °C |
| COc1ccc(-c2[nH]c3ccccc3c2CCC(=O)O)cc1 | 134 to 136 °C |
| CCOC(=O)C(NC(=O)c1ccccc1)C(=O)OCC | 62 to 64 °C |
| CC(C)C(NC(=O)CCc1ccccc1)C(=O)O (configuration not stated) | 147 to 149 °C |
| CCCc1ccc(S(N)(=O)=O)cc1 | 208 to 210 °C |
| CCOc1cc2c(cc1OCC)CNCC2 | 108 to 110 °C |
| O=C(O)CCc1nc(-c2ccsc2)no1 | 153 to 155 °C |
| CN(C)S(=O)(=O)c1ccc2oc(NN)nc2c1 | 218 to 220 °C |
| Nc1cc2c(cc1Cl)OCO2 | 90 to 92 °C |
| NC1(C(=O)NCC2CC2)CCCC1 | 64 to 66 °C |
| C#CCNC(=O)Nc1ccccc1F | 134 to 136 °C |
| Cc1ccc2c(CC(=O)O)coc2c1C | 148 to 152 °C |
| O=c1cccn[nH]1 | 94 to 98 °C |
| CC(C)(C)c1c(C(=O)O)nnn1-c1ccc(Cl)cc1F | 152 to 154 °C |
| CC(NS(=O)(=O)c1ccccc1C(F)(F)F)C(=O)O (configuration not stated) | 105 to 107 °C |
| COC(=O)c1ccc(S(N)(=O)=O)s1 | 150 to 152 °C |
| O=C(Nc1sc2ccccc2c1Cl)OCC(F)(F)F | 95 to 97 °C |
| CCN(CC)S(=O)(=O)c1cc(NC(=O)CCl)ccc1C | 70 to 72 °C |
| CCc1ccccc1C(=O)O | 62 to 66 °C |
| O=C(Nc1ccc(O)cc1)C1CC1 | 212 to 214 °C |
| Nc1cccnc1Nc1ccccc1 | 135 to 137 °C |
| O=S(=O)(Cl)c1ncn[nH]1 | 58 to 60 °C |
| CCOC(=O)c1c(C)[nH]c(C(=O)C(C)Cl)c1C (configuration not stated) | 148 to 150 °C |
| c1ccc(COc2cccc3[nH]ncc23)cc1 | 125 to 127 °C |
| C=CCNc1ncc(C(=O)OC)s1 | 109 to 111 °C |
| Cc1cccc(-c2nc(CC(=O)O)cs2)c1 | 110 to 112 °C |
| CC1(c2ccc(Cl)s2)NC(=O)NC1=O (configuration not stated) | 183 to 185 °C |
| N#CC1(N2C(=O)C=CC2=O)CCCC1 | 43 to 45 °C |
| CCCOc1ccc2ccccc2c1C=O | 65 to 68 °C |
| COC(=O)Cc1nn[nH]n1 | 154 to 156 °C |
| CCN(CC)S(=O)(=O)c1ccc(Br)c(C(=O)O)c1 | 141 to 145 °C |
| CC1(C)CC(=O)c2cc(Br)cc(Cl)c2O1 | 48 to 50 °C |
| COc1cc(Br)c(F)cc1S(=O)(=O)Cl | 79 to 81 °C |
